System: HBV
Test: Anti-HBV activity in HepG2.2.15 cells (HBV DNA in culture medium by qPCR)
Assay type: cell-based
Settings: Hepatitis B virus, HepG2.2.15, 144 h, HepG2.2.15 cells, 6 days treatment, HBV DNA in culture medium quantified by real-time PCR; read-out: EC50
Each entry below lists one item and its recorded EC50 value.
Express it in nM; write the number only.

Here is how some compounds turned out for EC50.
CCOC(=O)C1=C(CN2CCC3(F)C(=O)N(CC(C)(C)C(=O)O)CC23)NC(c2nccs2)=N[C@H]1c1cccc(F)c1C (stereo in doubt) [Compound 3]
20.2
CCOC(=O)C1=C(CN2CC(F)(F)[C@H]3[C@@H]2CCN3[C@H]2C[C@H](CC(=O)O)C2)NC(c2nccs2)=N[C@H]1c1cccc(F)c1C (single isomer, unassigned) [Compound 123B]
9
CCOC(=O)C1=C(CN2CC(F)(F)[C@H]3[C@@H]2CCN3CCC(C)(C)C(=O)O)NC(c2ncoc2C)=N[C@@H]1c1cccc(F)c1C (relative stereo) [Compound 107]
11.3
CCOC(=O)C1=C(CN2CC(F)(F)[C@@H]3CN(C(=O)C(C)(C)C(=O)O)C[C@@H]32)NC(c2nccs2)=N[C@H]1c1cccc(F)c1C (single isomer, unassigned) [Compound 9A]
11.1
CCOC(=O)C1=C(CN2CC(F)(F)[C@H]3CN([C@@H](C)C(=O)O)C[C@H]32)NC(c2nccs2)=N[C@H]1c1cccc(F)c1C (single isomer, unassigned) [Compound 14F]
125

State, in one line, measured EC50 of CCOC(=O)C1=C(CN2CC(F)(F)[C@@H]3[C@H]2CON3CCC(C)(C)C(=O)O)NC(c2nc(C)cs2)=N[C@H]1c1ccc(F)c(F)c1F (single isomer, unassigned) [Compound 174]
15

State, in one line, measured EC50 of COC(=O)C1=C(CN2CC(F)(F)[C@H]3[C@@H]2CN(C(C)=O)N3CCC(C)(C)C(=O)O)NC(c2nccs2)=N[C@H]1c1ccc(F)c(F)c1Cl (single isomer, unassigned) [Compound 79B]
27

State, in one line, measured EC50 of CCOC(=O)C1=C(CN2CC(F)(F)[C@H]3CN([C@H]4C[C@@H](C(=O)O)C4)C[C@H]32)NC(c2nccs2)=N[C@H]1c1cccc(F)c1C (single isomer, unassigned) [Compound 18B]
73.7

State, in one line, measured EC50 of CCOC(=O)C1=C(CN2CC(F)(F)[C@@H]3CN(C(=O)NCC(C)(C)C(=O)O)C(=O)[C@@H]32)NC(c2nccs2)=N[C@H]1c1cccc(F)c1C (single isomer, unassigned) [Compound 189]
18.1

State, in one line, measured EC50 of CCOC(=O)C1=C(CN2CC(F)(F)[C@@H]3[C@H]2CON3CCC(C)(C)C(=O)O)NC(c2nccs2)=N[C@H]1c1cccc(F)c1F (single isomer, unassigned) [Compound 173]
16

###

Test system: HBV
Test: Anti-HBV activity in HepG2.2.15 cells (HBV DNA in culture medium by qPCR)
Type: cell-based
Details: Hepatitis B virus, HepG2.2.15, 144 h, HepG2.2.15 cells, 6 days treatment, HBV DNA in culture medium quantified by real-time PCR; read-out: EC50
test-readout: pEC50
Note: pEC50 values are expressed as the negative base-10 logarithm of concentration in M.

Here is how some compounds turned out for pEC50.
CCOC(=O)C1=C(CN2CC(F)(F)[C@@H]3C(=O)N(CC(C)(C)C(=O)O)C[C@@H]32)NC(c2nccs2)=N[C@H]1c1cccc(F)c1C (relative stereo) [Compound 5A]
8.09
COC(=O)C1=C(CN2CC(F)(F)[C@@H]3[C@H]2CN(C(C)=O)N3CCC(C)(C)C(=O)O)NC(c2nccs2)=N[C@H]1c1cccc(F)c1Cl (single isomer, unassigned) [Compound 84A]
7.28
[H][C@]1(N2CC[C@H]3[C@@H]2C(F)(F)CN3CC2=C(C(=O)OCC)[C@H](c3cccc(F)c3C)N=C(c3nccs3)N2)C[C@@]2(C[C@@H](C(=O)O)C2)C1 (single isomer, unassigned) [Compound 113A]
8.30
CCOC(=O)C1=C(CN2CC(F)(F)[C@H]3[C@@H]2C(=O)N(CC(C)(C)C(=O)O)N3C)NC(c2nccs2)=N[C@H]1c1cccc(F)c1C (single isomer, unassigned) [Compound 88]
8.82

Shifting focus to the compound that follows.
State, in one line, measured pEC50 of CCOC(=O)C1=C(CN2CC(F)(F)[C@H]3[C@@H]2CCN3C2CC(C(=O)O)C2)NC(c2nccs2)=N[C@H]1c1cccc(F)c1C (relative stereo) [Compound 39A]
8.62

###

Assay: Cytotoxicity determination in HepG2.2.15 cells (CCK-8 cell viability)
Assay type: cell-based
Conditions: human, 6 days treatment, CCK-8 assay, highest concentration 100 uM
Kindly apply the following: criterion met if CC50 at 6 days is less than 40 µM, criterion not met in every other case.

Criterion: CC50 at 6 days strictly below 40 µM. Is it met by CCOC(=O)C1=C(CN2CC(F)(F)[C@@H]3CN(CC(C)(C)C(=O)O)C[C@@H]32)NC(c2nccs2)=N[C@H]1c1cccc(F)c1C (single isomer, unassigned) [Compound 12B] ?
criterion not met

Criterion: CC50 at 6 days strictly below 40 µM. Is it met by CCOC(=O)C1=C(CN2CC(F)(F)[C@@H]3C(=O)N(C(=O)NCC(C)(C)C(=O)O)C[C@@H]32)NC(c2nccs2)=N[C@H]1c1cccc(F)c1C (single isomer, unassigned) [Compound 188] ?
criterion met

Criterion: CC50 at 6 days strictly below 40 µM. Is it met by CCOC(=O)C1=C(CN2CC(F)(F)[C@@H]3CN(CC4(CC(=O)O)CC4)C[C@@H]32)NC(c2nccs2)=N[C@H]1c1cccc(F)c1C (single isomer, unassigned) [Compound 48] ?
criterion not met

Criterion: CC50 at 6 days strictly below 40 µM. Is it met by CCOC(=O)C1=C(CN2CC(F)(F)[C@@H]3CN(C(=O)CC(C)(C)C(=O)O)C(=O)[C@@H]32)NC(c2nccs2)=N[C@H]1c1cccc(F)c1C (single isomer, unassigned) [Compound 191] ?
criterion met

###

Each entry below lists one item and its recorded CC50 at 6 days value.
Test: Cytotoxicity determination in HepG2.2.15 cells (CCK-8 cell viability)
Type: cell-based
Settings: human, 6 days treatment, CCK-8 assay, highest concentration 100 uM
Experimental: HepG2.2.15 (the HepG2.2.15 cell line can be produced by transfection of the HepG2 cell line as described in Sells, Chen, and Acs 1987 (Proc. Natl. Acad. Sci. USA 84: 1005-1009), and the HepG2 cell line is available from ATCC® under number HIB-8065™) […] Cell viability was determined by CCK-8 assay. […] The absorbance at 450 nm wavelength and the absorbance at 630 nm wavelength as reference was measured. 2) DATA Analysis EC50 and CC50 values are calculated by the GRAPTIPAD PRISM software.
The number alone won't do; follow it with the unit.

Here is how some compounds turned out for CC50 at 6 days.
CCOC(=O)C1=C(CN2CC(F)(F)[C@H]3[C@@H]2CCN3S(N)(=O)=O)NC(c2nccs2)=N[C@H]1c1cccc(F)c1C (single isomer, unassigned) [Compound 34]
14.3 µM
CCOC(=O)C1=C(CN2CC(F)(F)C3CN(CC(C)(C)C(=O)O)CC32)NC(c2nccs2)=N[C@H]1c1cccc(F)c1C (stereo in doubt) [Compound 12]
56.7 µM

Shifting focus to the compound that follows.
State, in one line, measured CC50 at 6 days of CCOC(=O)C1=C(CN2CC(F)(F)[C@H]3[C@@H]2CCN3C(N)=O)NC(c2nccs2)=N[C@H]1c1cccc(F)c1C (single isomer, unassigned) [Compound 36]
26 µM

###

Each entry below lists one item and its recorded CC50 at 6 days value.
Assay: Cytotoxicity determination in HepG2.2.15 cells (CCK-8 cell viability)
Assay type: cell-based
Conditions: human, 6 days treatment, CCK-8 assay, highest concentration 100 uM
Express it in µM; write the number only.

Here is how some compounds turned out for CC50 at 6 days.
CCOC(=O)C1=C(CN2CC(F)(F)[C@@H]3[C@H]2CN(C(N)=O)N3CCC(C)(C)C(=O)O)NC(c2nccs2)=N[C@H]1c1cccc(F)c1C (single isomer, unassigned) [Compound 76A]
28.2
CCOC(=O)C1=C(CN2CC(F)(F)C3C(=O)N(CC(C)(C)C(=O)O)CC32)NC(c2nccs2)=N[C@H]1c1cccc(F)c1C (some centres unmarked)
90.1
CCOC(=O)C1=C(CN2CC(F)(F)C3[C@@H]2CCN3[C@H]2C[C@](C)(C(=O)O)C2)NC(c2nccs2)=N[C@H]1c1cccc(F)c1C (single isomer, unassigned) [Compound 112A]
28.7
CCOC(=O)C1=C(CN2CC(F)(F)[C@H]3[C@@H]2CCN3CCC(C)(C)C(=O)O)NC(c2nccs2)=N[C@H]1c1ccc(F)c(F)c1Cl (single isomer, unassigned)
14.5
COC(=O)C1=C(CN2CC(F)(F)[C@H]3[C@@H]2CCN3CCC(C)(C)C(=O)O)NC(c2ncoc2C)=N[C@H]1c1ccc(F)cc1Cl (single isomer, unassigned)
58.4

State, in one line, measured CC50 at 6 days of CCOC(=O)C1=C(CN2CC(F)(F)C3C(=O)N(C(=O)CC(C)(C)C(=O)O)C[C@@H]32)NC(c2nccs2)=N[C@H]1c1cccc(F)c1C (single isomer, unassigned)
28.7

State, in one line, measured CC50 at 6 days of CCOC(=O)C1=C(CN2CC(F)(F)[C@H]3[C@@H]2CCN3CC2(C(=O)O)CC2)NC(c2nccs2)=N[C@H]1c1cccc(F)c1C (relative stereo) [Compound 38A]
20

State, in one line, measured CC50 at 6 days of CCOC(=O)C1=C(CN2CC(F)(F)[C@@H]3C(=O)N(CC(C)(C)C(=O)O)C[C@@H]32)NC(c2nccs2)=N[C@H]1c1cccc(F)c1C (relative stereo)
70.4

State, in one line, measured CC50 at 6 days of CCOC(=O)C1=C(CN2CC(F)(F)[C@@H]3CN(C(C)(C)C(=O)O)C[C@@H]32)NC(c2nccs2)=N[C@H]1c1cccc(F)c1C (single isomer, unassigned)
96.6

State, in one line, measured CC50 at 6 days of CCOC(=O)C1=C(CN2CC(F)(F)C3C2CCN3CC(C)(C)C(=O)O)NC(c2nccs2)=N[C@H]1c1cccc(F)c1C (some centres unmarked)
24.8

State, in one line, measured CC50 at 6 days of CCOC(=O)C1=C(CN2CC(F)(F)[C@H]3[C@@H]2CCN3CC[C@H]2C[C@@H]2C(=O)O)NC(c2nccs2)=N[C@H]1c1cccc(F)c1C (relative stereo)
23.5

State, in one line, measured CC50 at 6 days of COC(=O)C1=C(CN2CC(F)(F)[C@H]3[C@@H]2CCN3C[C@@H](C)C(=O)O)NC(c2nccs2)=N[C@H]1c1cccc(F)c1C (single isomer, unassigned) [Compound 131A]
44.6

State, in one line, measured CC50 at 6 days of CCOC(=O)C1=C(CN2CC(F)(F)[C@@H]3CN(S(=O)(=O)NC(C)=O)C[C@@H]32)NC(c2nccs2)=N[C@H]1c1cccc(F)c1C (single isomer, unassigned)
31.8
